# Test method notes: Pharmacokinetic test in mice
# Assay type: in vivo, ICR mice
# Condition: male, ICR, mouse, iv; mice, i.v. 2.5 mg/kg, plasma
Quantity kind: AUC(0-t) (µg·h/mL)

[[record]]
molecule = "O=C(NC1CC1)c1ccc(C2=CCN(Cc3cnc4cc(C5CC5)c(=O)[nH]c4c3)CC2)cn1"
unit_annotation = "µg·h/mL"
quantitative_result = 108


---

# Test method notes: Pharmacokinetic test in rats
# Format: in vivo, SD rats
# Condition: male, SD, rat, iv; rats, i.v. 2.5 mg/kg, plasma
Quantity kind: AUC(0-t) (ng·h/mL)

[[record]]
molecule = "CNC(=O)c1ccc(N2CCN(Cc3cnc4cc(C5CC5)c(=O)[nH]c4c3)CC2)cn1"
quantity_kind = "AUC(0-t)"
quantitative_result = 70800


---

# Test method notes: Pharmacokinetic test in rats
# Format: in vivo, SD rats
# Condition: male, SD, rat, iv; rats, i.v. 2.5 mg/kg, plasma; read-out: Vdss
Quantity kind: Vd (L/kg)

[[record]]
molecule = "CNC(=O)c1ccc(N2CCN(Cc3cnc4cc(C5CC5)c(=O)[nH]c4c3)CC2)cn1"
quantity_kind = "Vd"
quantitative_result = 0.169


---

# Test method notes: Pharmacokinetic test in mice
# Assay type: in vivo, ICR mice
# Condition: male, ICR, mouse, po; mice, i.g. 10 mg/kg, plasma
Quantity kind: AUC(0-t)

[[record]]
compound = "O=C(NC1CC1)c1ccc(C2=CCN(Cc3cnc4cc(C5CC5)c(=O)[nH]c4c3)CC2)cn1 [Compound 3]"
result = "707 µg·h/mL"


---

The entries below are paired with their reported IC50.
# System: MDA-MB-436 cells
# Test method notes: MDA-MB-436 cell activity test (CellTiter-Glo, 7 days)
# Type: cell-based
# Condition: Homo sapiens, MDA-MB-436, 168 h; 7 days incubation
Quantity kind: IC50 (nM)

[[record]]
compound = "CNC(=O)c1ccc(N2CCN(Cc3cnc4cc(C5CC5)c(=O)[nH]c4c3)CC2)cn1 [Compound 2]"
quantitative_result = 5.1

[[record]]
compound = "Cn1cc(NC(=O)c2ccc(N3CCN(Cc4cnc5cc(C6CC6)c(=O)[nH]c5c4)CC3)cn2)cn1 [Compound 6]"
quantitative_result = 2.8

[[record]]
compound = "O=c1[nH]c2cc(CN3CCN(c4cn5cc(C(F)(F)F)nc5cn4)CC3)cnc2cc1C1CC1 [Compound 8]"
quantitative_result = 1.1

[[record]]
compound = "O=C(NC1CC1)c1ccc(N2CCN(Cc3cnc4cc(C5CC5)c(=O)[nH]c4c3)CC2)cn1 [Compound 5]"
quantitative_result = 5.6

[[record]]
compound = "O=C(NC1CC1)c1ccc(C2=CCN(Cc3cnc4cc(C5CC5)c(=O)[nH]c4c3)CC2)cn1 [Compound 3]"
quantitative_result = 4.5

